Target: Slc12a8 (Mus musculus, UniProt Q8VI23)
Construct: NIH3T3 cells were transfected with 5 μg of pCXN2 carrying the full-length Slc12a8 cDNA (Slc12a8-OE)
Experiment: 3H-NMN uptake and displacement in Slc12a8-OE proteoliposomes
Conditions: Slc12a8-OE proteoliposome system
Field: pIC50. Provide a value for each of the compounds that follow.
pIC50 here: minus log base 10 of the concentration, concentration in moles per litre.

Give the measured pIC50 of NC(=O)c1ccc[n+]([C@@H]2O[C@H](COP(=O)([O-])O)[C@@H](O)[C@H]2O)c1 [NMN, nicotinamide mononucleotide] .
4.64

Then NC(=O)c1ccc[n+]([C@@H]2O[C@H](CO)[C@@H](O)[C@H]2O)c1 [NR, nicotinamide riboside] ?
4.11

---

Biological target: Slc12a8 (Mus musculus, UniProt Q8VI23)
Construct: NIH3T3 cells were transfected with 5 μg of pCXN2 carrying the full-length Slc12a8 cDNA (Slc12a8-OE); expressed in transfected cells
Sequence (Q8VI23 1-705): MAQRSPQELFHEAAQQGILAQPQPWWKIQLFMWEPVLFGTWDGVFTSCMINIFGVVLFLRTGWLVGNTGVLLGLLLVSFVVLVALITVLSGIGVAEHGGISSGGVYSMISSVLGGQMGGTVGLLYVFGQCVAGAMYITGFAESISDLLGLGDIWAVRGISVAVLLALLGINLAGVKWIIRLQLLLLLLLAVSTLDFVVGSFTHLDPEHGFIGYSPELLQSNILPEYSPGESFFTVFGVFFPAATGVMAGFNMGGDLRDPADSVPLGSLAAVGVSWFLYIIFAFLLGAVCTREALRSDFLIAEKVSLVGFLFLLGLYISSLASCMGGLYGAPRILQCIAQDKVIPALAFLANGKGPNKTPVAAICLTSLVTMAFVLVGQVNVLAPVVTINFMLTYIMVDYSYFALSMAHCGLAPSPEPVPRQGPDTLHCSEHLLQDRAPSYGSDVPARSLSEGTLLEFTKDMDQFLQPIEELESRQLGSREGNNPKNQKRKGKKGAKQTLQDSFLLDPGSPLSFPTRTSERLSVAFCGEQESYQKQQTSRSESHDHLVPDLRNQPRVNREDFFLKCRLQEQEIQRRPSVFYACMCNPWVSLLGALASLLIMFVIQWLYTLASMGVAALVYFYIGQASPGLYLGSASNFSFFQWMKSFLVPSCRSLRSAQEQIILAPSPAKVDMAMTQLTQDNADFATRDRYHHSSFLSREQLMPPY
Assay: 3H-NMN uptake and displacement in Slc12a8-OE proteoliposomes
Type: biochemical
Details: 150 μM cold compound, 150 nM 3H-NMN, 25° C., 2 min
quantity: displacement of 3H-NMN

Give the measured displacement of 3H-NMN of NC(=O)c1ccc[n+]([C@@H]2O[C@H](CO)[C@@H](O)[C@H]2O)c1 [NR, nicotinamide riboside] .
~70%
